// reported TGI per item
tested on: OVCAR-3 ovarian; assay: NCI tumour cell line growth inhibition, 48 h

These solved cases illustrate the format of a correct answer.
{"COMPOUND": "COC12C=C/C(=C(/C(=O)OCc3ccncc3)C(=O)CCCCCCCCC3(OC)C=C/C(=C(/C(=O)OCc4ccncc4)C(=O)CCCCCCCC1)O3)O2", "ASSAYED TARGET": "OVCAR-3 ovarian", "OBSERVED MEASUREMENT": "0.93 µM"}
{"COMPOUND": "O=C(NC(CO)Cc1ccc(Oc2cc(CC(CO)NC(=O)OCc3ccccc3)ccc2OC(=O)OCc2ccccc2)cc1)OCc1ccccc1 (stereo not given)", "ASSAYED TARGET": "OVCAR-3 ovarian", "OBSERVED MEASUREMENT": "45 µM"}
{"COMPOUND": "O=c1[nH]c(=O)n(C2CC(O)C(CO)O2)cc1CO (stereo not given)", "ASSAYED TARGET": "OVCAR-3 ovarian", "OBSERVED MEASUREMENT": "> 100 µM"}
{"COMPOUND": "Cn1c(N)c2c3c(sc2nc1=O)CCCC3", "ASSAYED TARGET": "OVCAR-3 ovarian", "OBSERVED MEASUREMENT": "> 75 µM"}

QUERY: May I ask what TGI has been recorded for COc1c(OC)c(OC)c(C(=O)/C=C/c2ccccc2)c(OC)c1OC ?
RESULT: 25.1 µM

QUERY: Look at this compound and give its reported TGI. COc1ccccc1N1CCN(CCCn2c(=O)c3c(OC)nc(C)cc3c(=O)n2-c2ccccc2)CC1
RESULT: > 100 µM

QUERY: # input compound: O=C(/C=C/C=C/c1ccccc1)c1ccc2c(c1)CCCC2 ; wanted: its TGI
RESULT: > 100 µM

QUERY: For Nc1nc2c(ncn2Cc2ccc(CO)cc2)c(=O)[nH]1 , what is its reported TGI?
RESULT: > 100 µM

QUERY: Which TGI value belongs to CCCC(O)C(NC(=O)CCl)C(=O)O (stereo not given) ?
RESULT: > 100 µM

QUERY: Can you look up the measured TGI of CCOC(=O)C1=C(N)Oc2ccc(Br)cc2C1C(C#N)C(=O)OCC (stereo not given) for me?
RESULT: 39.7 µM

====

tested on: MOLT-4 leukemia; assay: NCI tumour cell line growth inhibition, 48 h; in the data active = GI50 below about 0.43 µM; inactive = the rest
Respond using exactly one of the listed classes: yes (active), no (inactive)

Known results for compounds:
{"SMILES REPRESENTATION": "Cn1cnc([N+](=O)[O-])c1S(=O)(=O)Oc1ccccc1", "ASSIGNED CATEGORY": "no"}
{"SMILES REPRESENTATION": "COc1ccncc1C#Cc1cncc(C(=O)Nc2ccc(CN3CCN(C)CC3)c(C(F)(F)F)c2)c1", "ASSIGNED CATEGORY": "no"}
{"SMILES REPRESENTATION": "COc1ccc2[nH]cc(-c3nc(-c4c[nH]c5ncccc45)cs3)c2c1", "ASSIGNED CATEGORY": "no"}
{"SMILES REPRESENTATION": "COc1cccc(/C=N/[N-]C(=O)c2ccncc2)c1[O-].[Cu+2].[OH3+]", "ASSIGNED CATEGORY": "no"}
{"SMILES REPRESENTATION": "CS(=O)(=O)CCCn1c(=O)c(Oc2ccc(F)cc2F)cc2cnc(NC3CCOCC3)nc21", "ASSIGNED CATEGORY": "no"}
{"SMILES REPRESENTATION": "CCCCCCNC(=O)c1nc(-c2ccccc2)oc1Cc1ccc(OP(=O)(O)O)cc1", "ASSIGNED CATEGORY": "no"}

Please find the next compound below.
QUERY: Entry C=Cc1c(C)c2cc3nc(cc4[nH]c(cc5nc(cc1[nH]2)C(C)=C5CCC(=O)O)c(CCC(=O)OC)c4C)[C@@]1(C)C3=CC=C(C(=O)OC)[C@H]1C(=O)OC : call = ?
RESULT: yes
